# Tested on: K-562 leukemia
# assay: NCI-60 one-dose screen, 48 h (100 = growth as untreated, 0 = no growth, -100 = all killed)
# details: 10 µM unless noted
About 83,000 compounds went through this panel and 20% of them were active in at least one assay; those are over-represented in the sample as a whole.
reported_metric: growth (%)
Could you give me the number in %? Just the number is fine.

Completed entries (count: 3):
compound=CC1=C(NCCN2CCCC2)C(=O)c2c(OCc3cccc(Cl)c3)cccc2C1=O assay_system="K-562 leukemia" recorded_measurement=30.8
compound="C=C1CCC2C3(C)COC(c4cccc(Cl)c4)OC3CCC2(C)C1/C=C/C1=CCOC1=O (centres undefined)" assay_system="K-562 leukemia" recorded_measurement=24.3
compound=CN1CCN(Cc2ccc(NC(=O)c3cncc(C#Cc4cncc5nccnc45)c3)cc2C(F)(F)F)CC1 assay_system="K-562 leukemia" recorded_measurement=10.4

The record that follows has no growth shown yet.
Quick check: growth of CCOC(=O)C(C#N)C1CCCCC1 (centres undefined) ?
79.3

---

# System: NCI-H322M lung
# assay: NCI-60 one-dose screen, 48 h
# details: 10 µM unless noted
Compounds without any hit were thinned out: in the full panel of roughly 83,000, 20% have a hit. Calls of active or inactive are those of the source. How the source made its calls: active means growth percent below 10; inactive means the rest.
Respond only with the outcome that fits, drawn from active, inactive

compound=NC(=S)N/N=C/c1cc(-c2cccc(N)c2)ccn1 classification=active

# lookup: test call for CCOC(=O)C(Cc1cc(I)c(O)c(I)c1)NC(=O)c1ccccc1 (stereo not given)
inactive

// repeat for `COc1ccc(C(=O)c2sc3nc(-c4ccccc4OC)ccc3c2N)cc1OC` and report
inactive

// repeat for `O=C(Nc1ccc(CN2CCOCC2)cc1)c1[nH]ncc1Nc1ncnc2sccc12` and report
active

// repeat for CCN(CC)CC(C)Nc1ccc([N+](=O)[O-])c2sc3ccccc3c(=O)c12 (stereo not given) and report
inactive

// repeat for `CC[C@]12C=CCN3CC[C@@]4(c5ccc(OC)cc5N(C)[C@H]4[C@@](O)(C(=O)OC)[C@@H]1OC(=O)CCC(=O)N[C@@H](Cc1c[nH]c4ccccc14)C(=O)OC)[C@@H]32` and report
inactive

// repeat for `CC(=O)C1=C(O)C=C2Oc3c(C(=O)/C=C/c4cc(Cl)cc(Cl)c4)c(O)c(C)c(O)c3[C@]2(C)C1=O` and report
active

// repeat for COc1cc(C2CC(=O)Nc3c2cnn3Cc2ccco2)cc2c1OCCO2 (stereo not given) and report
inactive

// repeat for `O=[N+]([O-])c1cccc(-c2nc3sccn3c2-c2ccnc(NCCNS(=O)(=O)c3ccc(C(F)(F)F)cc3)n2)c1` and report
inactive

// repeat for O=C1C=CC(Nc2ccccc2[N+](=O)[O-])C1Nc1ccccc1[N+](=O)[O-] (stereo not given) and report
inactive

---

# System: RXF 393 renal
# assay: NCI-60 one-dose screen, 48 h (100 = growth as untreated, 0 = no growth, -100 = all killed)
# details: 10 µM unless noted
The panel holds about 83,000 compounds, 20% with a hit somewhere; the sample as a whole holds those more often.
Define the label as 1 (yes) when growth is strictly less than 80% and as 0 (no) in all remaining cases.

Solved cases below.
smiles_repr=CCOC(=O)Cc1cnn(C)c1NC(=O)c1ccc(Cl)cc1NC(C)=O classification="0 (no)"
smiles_repr=Clc1cccc(Nc2nc(Nc3cnc4ccccc4c3)c3[nH]cnc3n2)c1 classification="1 (yes)"
smiles_repr=COc1ccc(-c2cnoc2-c2cc(OC)c3c(c2)OCCO3)cc1 classification="1 (yes)"

Now consider a different compound.
# check: growth < 80% for `O=C1C[C@H](N2C(=O)c3ccccc3S2(=O)=O)C2CO[C@@H]1O2`
0 (no)
